- MEASUREMENT NOTES: basal CRE-LacZ reporter activity in PC12 – cell-based, unstimulated, primary screen (AID 1145)
- CONDITION DESCRIPTION: no forskolin, luminescence, 4.5 h, higher = more signal, called active from +8 up or from −8 down
Decision: z-score >= -0.2 yields y, all other cases yield n.

Here's what some known entries look like.
COMPOUND	CLASSIFICATION
C[N+](C)(C)CCCCNC(=O)[C@H]1C[C@H]2C(=O)N3CCC[C@H]3C(=O)N2[C@H]1c1ccc(O)cc1	n
CN(C)CCCCNC(=O)[C@@H]1C[C@@H]2C(=O)N[C@@H](CCCCN)C(=O)N2[C@@H]1c1cccc(OCCO)c1	n
C[C@H]1C2[C@H](Cc3ccccc3)NC(=O)[C@]23C(=O)N[C@H](Cc2ccccc2)C(=O)N[C@H](Cc2ccccc2)C(=O)NC/C=C/CCC/C=C/C3[C@@H]2O[C@]12C (some centres not stated)	y
O=C(NCC(O)CO)[C@@]1(Cc2ccccc2)COC(c2ccc(OCCCO)cc2)=N1 (some centres not stated)	y
C=CCC(OC(C)=O)[C@@H]1[C@@H](N(Cc2ccc(-c3cccc(C(F)(F)F)c3)o2)C(=O)Cc2ccc(OC)cc2)c2cc(OCCCO)ccc2N1C(=O)Cc1ccc(OC)cc1 (some centres not stated)	y

Say whether COc1ccc([Si](C)(C)[C@H]2[C@H](CCO)O[C@@]3(C(=O)N(Cc4ccccc4)c4ccc(N5C(=O)COc6ccccc65)cc43)[C@@H]2C)cc1 shows z-score of -0.2 or more. n

Say whether CCN(CC)c1ccc(N2CC=CC34O[C@@H]5/C=C\CCCOC(=O)C5[C@H]3C(=O)N(CCCO)[C@@H]4C2=O)cc1 (some centres not stated) shows z-score of -0.2 or more. n

Every entry's value here was drawn from PubChem BioAssay.
